Where these numbers come from: patent US9730906B2

- Tested on: SF767 human tumour cells
- protocolNotes: Growth of SF767 tumour cells in culture
- Assay type: cell-based
readoutKind: pIC50
Give bare numbers, as −log10 of the molar value.

Memo: CCCCCCCC/C=C\CCCCCCC(OP(=O)(OCC)OCC)C(=O)O (stereo not shown) , reported pIC50: 4.00

----------
- Test system: A549 cells
- protocolNotes: Growth/viability of A549 lung cancer cells in culture (cell count)
- Format: cell-based, human
- experimentalContext: concentration that reduces the number of cells to half
readoutKind: pIC50
One number for each entry, as −log10 of the molar value.

- compound: "CCCCCCCC/C=C\\CCCCCCC(O)C(=O)OC (stereo not drawn)"
  testedSystem: "A549 cells"
  pIC50: 4.03
- compound: "CCCCCCCC/C=C\\CCCCCCC(OC)C(=O)[O-].[Na+] (stereo not drawn)"
  testedSystem: "A549 cells"
  pIC50: 4.11
- compound: "CCCCCCCC/C=C\\CCCCCCC(OC(C)=O)C(=O)[O-].[Na+] (stereo not drawn)"
  testedSystem: "A549 cells"
  pIC50: 3.91

For each listed entry, give its pIC50.
1. CCCCCCCC/C=C\CCCCCCC(OC(C)=O)C(=O)OC (stereo not drawn)
2. CCCCCCCC/C=C\CCCCCCC(OP(=O)(OCC)OCC)C(=O)OCC (stereo not drawn)
3. CCCCCCCC/C=C\CCCCCCC(OC)C(=O)O (stereo not drawn) [MOOD, α-Methoxy-cis-Δ9-octadecenoic]

Data returned:
[3.61, 4.11, 4.21]

----------
- Test system: cyclooxygenase-2 (COX-2)
- protocolNotes: Cellular concentration of COX-2 in U937 differentiated monocytes (immunoblot)
- Format: cell-based, human
- experimentalContext: 250 μM, 6 hours; compared with fatty acids not of Formula I, p<0.05
readoutKind: cellular concentration of COX-2 (% of control)

- compound: "CCCCCC/C=C\\CCCCCCC(O)C(=O)O (stereo not drawn) [OHHD, α-Hydroxy-cis-Δ9-hexadecenoic]"
  dataValue: "more significant effect"
- compound: "CCCCCCC/C=C\\CCCCCCCC(S)C(=O)O (stereo not drawn) [SHOD, α-Mercapto-cis-Δ10-octadecenoic]"
  dataValue: "more significant effect"
- compound: "CCCCCCCC/C=C\\CCCCCCCCC(O)C(=O)O (stereo not drawn) [OHEE, α-Hydroxy-cis-Δ11-eicosenoic]"
  dataValue: "more significant effect"
- compound: "CCCCCCCC/C=C\\CCCCCCCCCCC(O)C(=O)O (stereo not drawn) [OHDE, α-Hydroxy-cis-Δ13-docosenoic]"
  dataValue: "more significant effect"
